Entries and their measured IC50 follow.
- SYSTEM UNDER TEST: ENaC (Homo sapiens, UniProt P37088+P51168+P51170)
- Construct: Primary NHBE cells were isolated from bronchi of normal healthy patients; endogenous in cells; host or cells: primary normal human bronchial epithelial (NHBE) cells, differentiated at air-liquid interface
- Sequence (P37088 1-669): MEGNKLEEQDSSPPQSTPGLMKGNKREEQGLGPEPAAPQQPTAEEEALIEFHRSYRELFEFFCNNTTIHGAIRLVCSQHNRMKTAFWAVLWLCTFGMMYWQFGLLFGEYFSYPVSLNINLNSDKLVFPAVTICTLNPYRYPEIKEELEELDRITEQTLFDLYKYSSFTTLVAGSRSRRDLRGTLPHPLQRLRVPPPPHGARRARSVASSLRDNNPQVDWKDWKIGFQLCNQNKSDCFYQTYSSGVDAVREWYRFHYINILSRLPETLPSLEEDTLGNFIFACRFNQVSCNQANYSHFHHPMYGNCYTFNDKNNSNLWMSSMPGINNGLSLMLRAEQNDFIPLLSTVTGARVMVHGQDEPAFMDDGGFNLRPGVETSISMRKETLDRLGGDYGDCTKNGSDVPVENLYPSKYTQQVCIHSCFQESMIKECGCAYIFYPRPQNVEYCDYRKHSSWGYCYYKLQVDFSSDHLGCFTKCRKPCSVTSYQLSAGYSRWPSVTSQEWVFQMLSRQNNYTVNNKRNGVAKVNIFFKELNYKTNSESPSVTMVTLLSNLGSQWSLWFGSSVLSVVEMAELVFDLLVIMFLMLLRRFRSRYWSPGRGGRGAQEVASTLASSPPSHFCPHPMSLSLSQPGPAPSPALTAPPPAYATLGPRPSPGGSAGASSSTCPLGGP
- Sequence (P51168 1-640): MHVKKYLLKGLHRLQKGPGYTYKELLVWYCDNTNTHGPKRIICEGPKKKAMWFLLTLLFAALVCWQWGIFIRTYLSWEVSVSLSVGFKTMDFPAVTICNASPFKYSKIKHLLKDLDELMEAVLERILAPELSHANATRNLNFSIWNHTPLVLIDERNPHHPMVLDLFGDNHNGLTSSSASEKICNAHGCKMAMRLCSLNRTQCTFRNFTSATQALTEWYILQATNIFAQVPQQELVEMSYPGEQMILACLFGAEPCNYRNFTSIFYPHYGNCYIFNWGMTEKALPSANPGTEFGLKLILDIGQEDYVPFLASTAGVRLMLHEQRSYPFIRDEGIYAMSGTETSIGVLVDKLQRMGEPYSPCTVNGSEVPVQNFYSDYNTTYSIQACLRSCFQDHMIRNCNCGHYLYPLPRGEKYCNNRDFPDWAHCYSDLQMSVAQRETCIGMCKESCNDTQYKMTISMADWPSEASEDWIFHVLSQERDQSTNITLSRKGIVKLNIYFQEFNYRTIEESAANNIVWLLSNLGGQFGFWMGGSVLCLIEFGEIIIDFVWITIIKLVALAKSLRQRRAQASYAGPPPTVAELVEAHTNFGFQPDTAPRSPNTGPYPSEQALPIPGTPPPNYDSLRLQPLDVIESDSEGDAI
- Sequence (P51170 1-649): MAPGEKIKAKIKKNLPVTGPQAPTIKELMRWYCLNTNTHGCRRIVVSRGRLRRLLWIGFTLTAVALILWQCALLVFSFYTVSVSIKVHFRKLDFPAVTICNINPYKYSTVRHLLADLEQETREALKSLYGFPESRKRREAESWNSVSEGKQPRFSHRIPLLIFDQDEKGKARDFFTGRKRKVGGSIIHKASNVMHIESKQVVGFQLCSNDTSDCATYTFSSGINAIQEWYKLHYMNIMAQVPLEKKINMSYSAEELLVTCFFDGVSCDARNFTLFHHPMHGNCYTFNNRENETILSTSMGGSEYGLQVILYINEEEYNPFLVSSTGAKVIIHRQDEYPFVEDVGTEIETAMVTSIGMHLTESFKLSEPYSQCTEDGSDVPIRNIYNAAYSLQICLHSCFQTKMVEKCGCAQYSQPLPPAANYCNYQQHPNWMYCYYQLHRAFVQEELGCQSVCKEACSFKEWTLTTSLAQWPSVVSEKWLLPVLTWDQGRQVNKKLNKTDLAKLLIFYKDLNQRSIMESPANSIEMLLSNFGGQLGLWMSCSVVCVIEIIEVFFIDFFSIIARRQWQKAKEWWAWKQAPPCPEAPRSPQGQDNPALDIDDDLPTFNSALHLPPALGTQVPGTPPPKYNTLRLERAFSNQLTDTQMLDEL
- ASSAY REMARKS: ENaC inhibition in NHBE cell monolayers, Ussing epithelial voltage clamp (short circuit current)
- Format: cell-based
Where a SMILES comes first, the peptide text is derived from it. [ ]: non-standard residue; d: D form. The star is where a group is joined. X2 = NC(=NC(=O)c1nc(Cl)c(N)nc1N)NCCCCN1C(=O)CC(*)C1=O; Hyp = O=C(O)[C@@H]1C[C@@H](O)CN1; Ahx = NCCCCCC(=O)O
Give the number; nM is assumed, so skip it.

Use the examples below as a reference point.
CC[C@H](C)[C@H](NC(=O)[C@H](Cc1ccc(O)cc1)NC(=O)[C@@H]1C[C@@H](O)CN1C(=O)[C@H](C)NC(=O)[C@H](CC(C)C)NC(=O)[C@H](C)NC(=O)CCCCCNC(=O)[C@H](CSC1CC(=O)N(CCCCNC(N)=NC(=O)c2nc(Cl)c(N)nc2N)C1=O)NC(C)=O)C(N)=O (stereo partly shown) [Conjugate 10, Ac-(AmilTC-C)-Ahx-ALA(Hyp)YI-NH2] (Ac-C(X2)[Ahx]ALA[Hyp]YI-NH2) :: 490
CC(=O)N[C@@H](CCCCn1cc(CCCCCNC(N)=NC(=O)c2nc(Cl)c(N)nc2N)nn1)C(=O)NCCCCCC(=O)N[C@@H](C)C(=O)N[C@@H](CO)C(=O)N[C@@H](Cc1c[nH]cn1)C(=O)N[C@@H](CC(C)C)C(=O)N[C@@H](CCCNC(=N)N)C(=O)N[C@@H](CCCCN)C(=O)N[C@@H](CC(C)C)C(=O)N[C@@H](CCCNC(=N)N)C(=O)N[C@@H](CCCCN)C(=O)N[C@@H](CCCNC(=N)N)C(=O)N[C@@H](CC(C)C)C(=O)N[C@@H](CC(C)C)C(N)=O [Conjugate 5] :: 30
CC(=O)N[C@@H](Cc1cn(CCCCNC(N)=NC(=O)c2nc(Cl)c(N)nc2N)nn1)C(=O)NCCCCCC(=O)N[C@@H](C)C(=O)N[C@@H](CO)C(=O)N[C@@H](Cc1c[nH]cn1)C(=O)N[C@@H](CC(C)C)C(=O)N[C@@H](CCCNC(=N)N)C(=O)N[C@@H](CCCCN)C(=O)N[C@@H](CC(C)C)C(=O)N[C@@H](CCCNC(=N)N)C(=O)N[C@@H](CCCCN)C(=O)N[C@@H](CCCNC(=N)N)C(=O)N[C@@H](CC(C)C)C(=O)N[C@@H](CC(C)C)C(N)=O [Conjugate 8] :: 60

Now examine the next entry.
Item: CC(=O)N[C@@H](CSC1CC(=O)N(CCCCNC(N)=NC(=O)c2nc(Cl)c(N)nc2N)C1=O)C(=O)NCCCCCC(=O)N[C@@H](C)C(=O)N[C@@H](CO)C(=O)N[C@@H](Cc1c[nH]cn1)C(=O)N[C@@H](CC(C)C)C(=O)N[C@@H](CCCNC(=N)N)C(=O)N[C@@H](CCCCN)C(=O)N[C@@H](CC(C)C)C(=O)N[C@@H](CCCNC(=N)N)C(=O)N[C@@H](CCCCN)C(=O)N[C@@H](CCCNC(=N)N)C(=O)N[C@@H](CC(C)C)C(=O)N[C@@H](CC(C)C)C(N)=O (stereo partly shown) [Conjugate 11] (Ac-C(X2)[Ahx]ASHLRKLRKRLL-NH2) | IC50: 70

----------
Entries and their measured pIC50 follow.
- SYSTEM UNDER TEST: ENaC (Homo sapiens, UniProt P37088+P51168+P51170)
- Construct: Primary NHBE cells were isolated from bronchi of normal healthy patients; endogenous in cells; host or cells: primary normal human bronchial epithelial (NHBE) cells, differentiated at air-liquid interface
- ASSAY REMARKS: ENaC inhibition in NHBE cell monolayers, Ussing epithelial voltage clamp (short circuit current)
- Format: cell-based
- CONDITION PARAMETERS: NHBE cell monolayers, Ussing chamber, apical addition, 35±2° C.; read-out: IC50 for the ENaC inhibition
Where a SMILES comes first, the peptide text is derived from it.
Answer as the number alone; pIC50 is minus log10 of concentration in mol/L.

CC(=O)N[C@@H](CCCCNC(N)=NC(=O)c1nc(Cl)c(N)nc1N)C(=O)NCCCCCC(=O)N[C@H](C(=O)N[C@@H](CO)C(=O)N[C@@H](CCCCN)C(=O)N[C@@H](CCCNC(=N)N)C(=O)N[C@@H](CCCNC(=N)N)C(N)=O)C(C)C [Conjugate 3, Ac-(AmilAC)K-(Ahx)-VSKRR-NH2] (HELM PEPTIDE1{[ac].[NC(=NC(=O)c1nc(Cl)c(N)nc1N)NCCCC[C@H](N[*:1])C(=O)[*:2]].[O=C(CCCCCN[*:1])[*:2]].V.S.K.R.R.[am]}$$$$V2.0) :: 7.30

Item: CC[C@H](C)[C@H](NC(=O)[C@H](Cc1ccc(O)cc1)NC(=O)[C@@H]1C[C@@H](O)CN1C(=O)[C@H](C)NC(=O)[C@H](CC(C)C)NC(=O)[C@H](C)NC(=O)CCCCCNC(=O)[C@H](Cc1cn(CCCCNC(N)=NC(=O)c2nc(Cl)c(N)nc2N)nn1)NC(C)=O)C(N)=O [Conjugate 7, Ac-(AmilCC2-Pgy)-Ahx-ALA(Hyp)YI-NH2] | pIC50: 6.10

Item: CC[C@H](C)[C@H](NC(=O)[C@H](Cc1ccc(O)cc1)NC(=O)[C@@H]1C[C@@H](O)CN1C(=O)[C@H](C)NC(=O)[C@H](CC(C)C)NC(=O)[C@H](C)NC(=O)CCCCCNC(=O)[C@H](CCCCn1cc(CCCCCNC(N)=NC(=O)c2nc(Cl)c(N)nc2N)nn1)NC(C)=O)C(N)=O [Conjugate 4, Ac-(AmilCC1-AzK)-Ahx-ALA(Hyp)YI-NH2] | pIC50: 6.62
